Provenance of the data: ChEMBL document CHEMBL4229523

We begin with a simple list: items and their reported Activity.
# test-name: Antioxidant activity assessed as trolox equivalent of alkoxyl radical scavenging activity by DMPO spin trap-based ESR spectrometric method
# Type: functional
reported-metric: Activity (equiv)

INSERT INTO assay_data (compound, experimental_value) VALUES
  ('Cc1ccc(C(C)C)c(O)c1', 0.013),
  ('NCCCNCCSP(=O)(O)O', 0.054),
  ('CC1CCC(C(C)C)C(O)C1 (stereo not given)', 0),
  ('C=CC(C)(O)CCC=C(C)C (stereo not given)', 0.045),
  ('NCCS', 0.045);

----------
# test-name: Antioxidant activity assessed as trolox equivalent of superoxide radical scavenging activity by CYPMPO spin trap-based ESR spectrometric method
# Assay type: functional
reported-metric: Activity (equiv)

INSERT INTO measurements (compound, reported_metric, experimental_value) VALUES
  ('NCCS', 'Activity', 0.13),
  ('NCCCNCCSP(=O)(O)O', 'Activity', 0.3),
  ('C=CC(C)(O)CCC=C(C)C (stereo not given)', 'Activity', 0.27),
  ('Cc1ccc(C(C)C)c(O)c1', 'Activity', 0.24),
  ('CC1CCC(C(C)C)C(O)C1 (stereo not given)', 'Activity', 0.39);
